# System: SK-MEL-28 melanoma
# protocol notes: NCI-60 one-dose screen, 48 h (100 = growth as untreated, 0 = no growth, -100 = all killed)
# conditions: 10 µM unless noted
About 83,000 compounds went through this panel and 20% of them were active in at least one assay; those are over-represented in the sample as a whole. Active and inactive are the calls of the source. How the source made its calls: active means growth percent below 10; inactive means the rest.
measurement kind: growth

INSERT INTO assay_data (compound, assay_value) VALUES
  ('Cc1cn(-c2nc3c(c(NCc4ccccc4)n2)COCC3)c2cccc(C(N)=O)c12', '96.5% [0.5 µM] (inactive)'),
  ('O=C(O)c1ccc(-n2cc(/C=N/Nc3ccc(Cl)cc3)c(-c3ccc(F)c(F)c3)n2)cc1', '73.6% (inactive)'),
  ('CN1CCN(CC(=O)N(C)c2ccc(N=C(c3ccccc3)c3c(O)[nH]c4ccc(C#N)cc34)cc2)CC1', '53% (inactive)'),
  ('Cn1c2ccccc2c2ssc(=S)c21', '108% (inactive)'),
  ('O=C(Nc1ccc(-n2ccc3c(NC(=O)c4ccccc4)nccc32)cc1)c1cccc(C(F)(F)F)c1', '48.1% (inactive)'),
  ('COc1ccc(-c2c(NC(=O)Nc3ccc(Cl)c(C(F)(F)F)c3)cnn2-c2ccc(S(N)(=O)=O)cc2)cc1', '42.2% (inactive)'),
  ('CC(C)CCC[C@@H](C)[C@H]1CC[C@H]2[C@@H]3CC=C4N(c5ccccc5)C(=O)CC[C@]4(C)[C@H]3CC[C@]12C', '106% (inactive)'),
  ('CCC1CN2C(=N1)c1ccccc1-c1cc(Cl)ccc12 (configuration not stated)', '70.7% (inactive)'),
  ('CCCCCn1ncc(-c2c(O)c(O)cc3c(O)c(-c4c(C)cc5c(-c6cnn(CCCCC)n6)c(O)c(O)cc5c4O)c(C)cc23)n1', '25.9% (inactive)'),
  ('CCc1c2cc(Cl)ccc2n2cc(Cc3ccccc3)[nH]c(=O)c12', '107% (inactive)'),
  ('COc1cc(NC(=O)C#Cc2ccccc2)c(OC)cc1Cl', '84.2% (inactive)'),
  ('CC(CN(C)C)CN1c2ccccc2CCc2ccccc21 (configuration not stated)', '84.9% (inactive)'),
  ('O=c1[nH]ccc2nc(N3CCC(O)CC3)nc(Nc3cccc(C(F)(F)F)c3)c12', '76.1% (inactive)'),
  ('CC(C)C(=O)Nc1nc2c(s1)CCCc1ccn(S(=O)(=O)c3ccccc3)c1-2', '106% (inactive)'),
  ('COc1cc(C(=O)NNC(=O)c2ccccc2C(=O)O)cc(OC)c1OC', '75.6% (inactive)'),
  ('CS(=O)(=O)Nc1cccc(-c2ccc3ncnc(Nc4ccc(F)c(Cl)c4)c3c2)c1', '44.9% (inactive)'),
  ('CCCCOc1nc2ccc(Cl)cc2cc1/C=C/C(=O)/C=C/c1ccc(OC)cc1', '107% (inactive)');

* * *

Entries and their measured growth follow.
# System: MOLT-4 leukemia
# protocol notes: NCI-60 one-dose screen, 48 h (100 = growth as untreated, 0 = no growth, -100 = all killed)
# conditions: 10 µM unless noted
This is part of a sample that, as a whole, favours compounds with a hit. Of some 83,000 tested, about 20% had one in any assay.
measurement kind: growth (%)

INSERT INTO assay_data (molecular_string, measurement_kind, assay_value) VALUES
  ('Cc1cc(N2CCOCC2)nc(N(CCNc2ccnc3cc(Cl)ccc23)Cc2ccco2)n1', 'growth', 5.1),
  ('CCCCCC/C=N/Nc1ccc([N+](=O)[O-])cn1', 'growth', 103),
  ('COc1ccc(-c2nn(-c3ccc(NC(=O)c4cc(Cl)cc(Cl)c4)cc3)cc2-c2ccncc2)cc1Cl', 'growth', 18.9),
  ('CCCC(=O)Oc1ccc(/C(=C(\C)c2ccc(Cl)cc2)c2ccc(OCCN(CC)CC)cc2)cc1', 'growth', -13.1),
  ('CC(=O)Oc1ccc(C(OC(C)=O)OC(C)=O)cc1', 'growth', 91.1),
  ('CC(=O)c1cc2c(N)c(C(=O)Nc3cccc(Cl)c3)sc2nc1C', 'growth', 73.4),
  ('Cn1c(I)c(C#C[Si](C)(C)C)c(=O)[nH]c1=O', 'growth', -59.7),
  ('O=C(Nc1ccc(-n2ccc3c(NC(=O)c4ccccc4)nccc32)cc1)Nc1ccc(Cl)c(Cl)c1', 'growth', 9.08),
  ('O=C1COc2ccccc2C(=O)N1CCCCNc1ccccc1', 'growth', 34.1),
  ('Cc1cn(-c2cc(C(=O)Nc3cccc(-n4ccc5c(NC(=O)c6ccccc6)nccc54)c3)cc(C(F)(F)F)c2)cn1', 'growth', 12.4),
  ('COC(=O)Nc1nc2ccc(Sc3ccccc3)cc2[nH]1', 'growth', 14.6);
